Biological target: T1, PARD3B_1, Q8TEW8
T1 sequence (Q8TEW8 196-299, limits assumed, looked up): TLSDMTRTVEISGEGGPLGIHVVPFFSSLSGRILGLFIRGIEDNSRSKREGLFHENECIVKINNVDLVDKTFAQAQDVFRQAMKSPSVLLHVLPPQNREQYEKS
Test: holdup assay
Design: key: below the threshold = too weak to quantify, mostly under pKd 3.1 to 4
Conditions: plain residues with an end cap or a label only (N-terminal biotin on a linker: ado-ado)

binder	pKd
RFQQRMQTHV [KIRREL1, Q96J84]	below the threshold
AEASVACSLC [PTGIR, P43119]	below the threshold
LPAVCYDIDI [PTTG2, Q9NZH5]	below the threshold
